The following compounds are shown together with reported EC50 values.
tgt: human FXR (Homo sapiens, UniProt Q96RI1)
methodSummary: transient human FXR/Gal4-luciferase reporter assay
assayConditions: Gal4-hFXR transfected HEK293 reporter cells; relative to 8 μM GW-4064
Text: A Gal4-hFXR fusion construct reporter system was used as the primary assay to characterize compound activity. […] The day prior to transfection, the reporter cells in culture are detached from the plate with trypsin and plated into a T75 flask at a sufficient density to achieve approximately 90% confluence the next morning. […] This protocol can be scaled up, and the transiently transfected cells can be cryopreserved in an assay-ready format. […]

>  <compound>
O=C(O)c1cnc(N2CCC3(C=C(c4c(-c5c(Cl)cccc5Cl)noc4C4CC4)C3)CC2)nc1 [Example 118]

>  <EC50>
171 nM

$$$$
>  <compound>
CC(C)Oc1cc(C(=O)O)nc2ccc(N3CCC4(C=C(c5c(-c6ccccc6C(F)(F)F)noc5C5CC5)C4)CC3)cc12 [Example 104]

>  <EC50>
59 nM

$$$$
>  <compound>
O=C(O)CNC(=O)c1ccc(N2CCC3(C=C(c4c(-c5ccccc5C(F)(F)F)noc4C4CC4)C3)CC2)nc1 [Example 31]

>  <EC50>
5300 nM

$$$$
>  <compound>
CC(C)Oc1cc(C(=O)O)nc2ccc(N3CCC4(C=C(c5c(-c6ccccc6OC(F)(F)F)noc5C5CC5)C4)CC3)cc12 [Example 106]

>  <EC50>
21 nM

$$$$

====

tgt: human FXR (Homo sapiens)
methodSummary: transient human FXR/Gal4-luciferase reporter assay
assayConditions: Gal4-hFXR transfected HEK293 reporter cells; relative to 8 μM GW-4064
pEC50: −log10 of the molar value.
testReadout: pEC50

>  <recordSmiles>
O=C(O)c1cc2ccc(N3CCC4(C=C(c5c(-c6ccccc6C(F)(F)F)noc5C5CC5)C4)CC3)cc2nn1

>  <reading>
6.75

$$$$
>  <recordSmiles>
O=C(O)c1cc(OC(F)F)c2cc(N3CCC4(C=C(c5c(-c6ccccc6C(F)(F)F)noc5C5CC5)C4)CC3)ccc2n1

>  <reading>
8.64

$$$$
>  <recordSmiles>
CS(=O)(=O)NC(=O)c1cc(C(F)(F)F)c2cc(N3CCC4(C=C(c5c(-c6c(Cl)cncc6Cl)noc5C5CC5)C4)CC3)ccc2n1

>  <reading>
7.14

$$$$

====

tgt: human FXR (Homo sapiens, UniProt Q96RI1)
methodSummary: transient human FXR/Gal4-luciferase reporter assay
assayConditions: Gal4-hFXR transfected HEK293 reporter cells; relative to 8 μM GW-4064
pEC50: −log10 of the molar value.
The following compounds are shown together with reported pEC50 values.
testReadout: pEC50

>  <compound>
O=C(O)c1cccc(OC2CCC3(CC2)CC(O)(c2c(-c4c(Cl)cccc4Cl)noc2C2CC2)C3)c1 (centres unmarked)

>  <testReadout>
pEC50

>  <reading>
5.35

$$$$
>  <compound>
O=C(O)c1cc(F)c2nc(N3CCC4(C=C(c5c(-c6c(Cl)cc(F)cc6Cl)noc5C5CC5)C4)CC3)sc2c1

>  <testReadout>
pEC50

>  <reading>
6.94

$$$$
>  <compound>
O=C(O)c1ccn2nc(N3CCC4(C=C(c5c(-c6ccccc6C(F)(F)F)noc5C5CC5)C4)CC3)ncc12

>  <testReadout>
pEC50

>  <reading>
7.06

$$$$
>  <compound>
Cn1nc(C(=O)O)c2ccc(N3CCC4(C=C(c5c(-c6ccccc6OC(F)(F)F)noc5C5CC5)C4)CC3)cc21

>  <testReadout>
pEC50

>  <reading>
5.53

$$$$
>  <compound>
O=C(O)c1ccc2nc(N3CCC4(C=C(c5c(-c6ccccc6OC(F)(F)F)noc5C5CC5)C4)CC3)ccc2c1

>  <testReadout>
pEC50

>  <reading>
6.88

$$$$
>  <compound>
O=C(O)c1ccc2cc(N3CCC4(C=C(c5c(-c6c(F)cccc6F)noc5C5CC5)C4)CC3)ccc2n1

>  <testReadout>
pEC50

>  <reading>
5.70

$$$$
>  <compound>
Cc1cccc(Cl)c1-c1noc(C2CC2)c1C1=CC2(CCN(c3ccc4nc(C(=O)O)ccc4c3)CC2)C1

>  <testReadout>
pEC50

>  <reading>
6.65

$$$$
>  <compound>
O=C(O)c1cccc2nc(N3CCC4(C=C(c5c(-c6c(Cl)cncc6Cl)noc5C5CC5)C4)CC3)ccc12

>  <testReadout>
pEC50

>  <reading>
7.19

$$$$
>  <compound>
O=C(NS(=O)(=O)C1CC1)c1cc(C(F)(F)F)c2cc(N3CCC4(C=C(c5c(-c6c(Cl)cncc6Cl)noc5C5CC5)C4)CC3)ccc2n1

>  <testReadout>
pEC50

>  <reading>
7.26

$$$$
>  <compound>
O=C(O)c1cc(C(F)(F)F)c2cc(N3CCC4(C=C(c5c(-c6c(Cl)cc(F)cc6Cl)noc5C5CC5)C4)CC3)ccc2n1

>  <testReadout>
pEC50

>  <reading>
7.17

$$$$
>  <compound>
COc1cncc(F)c1-c1noc(C2CC2)c1C1=CC2(CCN(c3nc4c(F)cc(C(=O)O)cc4s3)CC2)C1

>  <testReadout>
pEC50

>  <reading>
6.14

$$$$
>  <compound>
O=C(NS(=O)(=O)C1CC1)c1cc(OC(F)F)c2cc(N3CCC4(C=C(c5c(-c6ncccc6Cl)noc5C5CC5)C4)CC3)ccc2n1

>  <testReadout>
pEC50

>  <reading>
7.32

$$$$
>  <compound>
O=C(O)c1cnc2cc(N3CCC4(C=C(c5c(-c6ccccc6C(F)(F)F)noc5C5CC5)C4)CC3)ccc2n1

>  <testReadout>
pEC50

>  <reading>
6.76

$$$$
>  <compound>
CS(=O)(=O)NC(=O)c1cc(F)c2nc(N3CCC4(C=C(c5c(-c6c(Cl)cccc6Cl)noc5C5CC5)C4)CC3)sc2c1

>  <testReadout>
pEC50

>  <reading>
7.46

$$$$

====

tgt: human FXR (Homo sapiens, UniProt Q96RI1)
methodSummary: transient human FXR/Gal4-luciferase reporter assay
assayConditions: Gal4-hFXR transfected HEK293 reporter cells; relative to 8 μM GW-4064
pEC50: −log10 of the molar value.

>  <molecule>
O=C(O)c1cc(F)c2nc(N3CCC4(C=C(c5c(-c6cnccc6C(F)(F)F)noc5C5CC5)C4)CC3)sc2c1 [Example 139]

>  <pEC50>
6.32

$$$$
>  <molecule>
O=C(O)c1cc(OC(F)F)c2cc(N3CCC4(C=C(c5c(-c6c(Cl)cncc6Cl)noc5C5CC5)C4)CC3)ccc2n1 [Example 73]

>  <pEC50>
7.80

$$$$
>  <molecule>
O=C(O)c1ccc2nc(N3CCC4(C=C(c5c(-c6c(Cl)cncc6Cl)noc5C5CC5)C4)CC3)sc2c1 [Example 63]

>  <pEC50>
7.21

$$$$
>  <molecule>
Cn1nc(C#N)c2ccc(N3CCC4(C=C(c5c(-c6ccccc6OC(F)(F)F)noc5C5CC5)C4)CC3)cc21 [Example 175]

>  <pEC50>
5.49

$$$$
>  <molecule>
CC(C)c1onc(-c2c(Cl)cccc2Cl)c1C1=CC2(CCN(c3ccc4cc(C(=O)O)nnc4c3)CC2)C1 [Example 148]

>  <pEC50>
6.26

$$$$

====

tgt: human FXR (Homo sapiens, UniProt Q96RI1)
methodSummary: transient human FXR/Gal4-luciferase reporter assay
assayConditions: Gal4-hFXR transfected HEK293 reporter cells; relative to 8 μM GW-4064
pEC50: −log10 of the molar value.
testReadout: pEC50

>  <compound>
CS(=O)(=O)NC(=O)c1cc(OC(F)F)c2cc(N3CCC4(C=C(c5c(-c6ncccc6Cl)noc5C5CC5)C4)CC3)ccc2n1 [Example 190]

>  <testReadout>
pEC50

>  <reading>
6.77

$$$$
>  <compound>
O=C(O)c1ccc(N2CCC3(C=C(c4c(-c5c(Cl)cccc5Cl)noc4C4CC4)C3)CC2)nn1 [Example 5]

>  <testReadout>
pEC50

>  <reading>
6.50

$$$$
>  <compound>
Cc1cccc(Cl)c1-c1noc(C2CC2)c1C1=CC2(CCN(c3ccc4nc(C(=O)O)cc(C(F)(F)F)c4c3)CC2)C1 [Example 89]

>  <testReadout>
pEC50

>  <reading>
6.69

$$$$
>  <compound>
Cc1cc(C(=O)O)cc2sc(N3CCC4(C=C(c5c(-c6c(Cl)cncc6Cl)noc5C5CC5)C4)CC3)nc12 [Example 61]

>  <testReadout>
pEC50

>  <reading>
8.14

$$$$

====

tgt: human FXR (Homo sapiens, UniProt Q96RI1)
Sequence (Q96RI1 262-486 limits assumed): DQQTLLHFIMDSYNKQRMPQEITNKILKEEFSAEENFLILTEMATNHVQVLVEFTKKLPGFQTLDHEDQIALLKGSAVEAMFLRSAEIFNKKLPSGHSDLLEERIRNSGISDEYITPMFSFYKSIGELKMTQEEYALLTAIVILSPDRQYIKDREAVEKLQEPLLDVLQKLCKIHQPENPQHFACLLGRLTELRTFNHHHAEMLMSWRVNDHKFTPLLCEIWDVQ
methodSummary: transient human FXR/Gal4-luciferase reporter assay
assayConditions: Gal4-hFXR transfected HEK293 reporter cells; relative to 8 μM GW-4064
pEC50: −log10 of the molar value.
Classify by pEC50. Ranges: low class: < 6; middle class: ≥ 6 and < 7; high class: ≥ 7

>  <compound>
Cc1cc(C(=O)O)cnc1N1CCC2(C=C(c3c(-c4c(Cl)cccc4Cl)noc3C3CC3)C2)CC1

>  <tgt>
human FXR (Homo sapiens, UniProt Q96RI1)

>  <categoryLabel>
low class

$$$$
>  <compound>
O=C(O)c1cc(F)c2nc(N3C4CCC3CC3(CC(c5c(-c6c(Cl)cccc6Cl)noc5C5CC5)C3)C4)sc2c1 (centres unmarked)

>  <tgt>
human FXR (Homo sapiens, UniProt Q96RI1)

>  <categoryLabel>
middle class

$$$$
>  <compound>
CC(C)c1onc(-c2c(Cl)cncc2Cl)c1C1=CC2(CCN(c3ccc4nc(C(=O)O)cc(C(F)(F)F)c4c3)CC2)C1

>  <tgt>
human FXR (Homo sapiens, UniProt Q96RI1)

>  <categoryLabel>
high class

$$$$
>  <compound>
CC(C)c1onc(-c2c(Cl)cccc2Cl)c1C1=CC2(CCN(c3nc4c(F)cc(C(=O)O)cc4s3)CC2)C1

>  <tgt>
human FXR (Homo sapiens, UniProt Q96RI1)

>  <categoryLabel>
high class

$$$$
>  <compound>
Cn1nc(C(=O)O)c2cc(N3CCC4(C=C(c5c(-c6ccccc6OC(F)(F)F)noc5C5CC5)C4)CC3)ccc21

>  <tgt>
human FXR (Homo sapiens, UniProt Q96RI1)

>  <categoryLabel>
middle class

$$$$
>  <compound>
Cc1cccc(Cl)c1-c1noc(C2CC2)c1C1=CC2(CCN(c3nc4c(F)cc(C(=O)O)cc4s3)CC2)C1

>  <tgt>
human FXR (Homo sapiens, UniProt Q96RI1)

>  <categoryLabel>
high class

$$$$
>  <compound>
Cc1cc(C(=O)O)cc2sc(N3CCC4(CC3)CC(c3c(C(F)F)cnn3-c3ccccc3C(F)(F)F)C4)nc12

>  <tgt>
human FXR (Homo sapiens, UniProt Q96RI1)

>  <categoryLabel>
middle class

$$$$
>  <compound>
O=C(O)c1ccc(N2[C@@H]3CC[C@H]2CC2(C=C(c4c(-c5c(Cl)cccc5Cl)noc4C4CC4)C2)C3)nc1 (mixture of isomers)

>  <tgt>
human FXR (Homo sapiens, UniProt Q96RI1)

>  <categoryLabel>
middle class

$$$$
>  <compound>
CCOc1cc(C(=O)O)nc2ccc(N3CCC4(C=C(c5c(C6CCCCC6)noc5C5CC5)C4)CC3)cc12

>  <tgt>
human FXR (Homo sapiens, UniProt Q96RI1)

>  <categoryLabel>
low class

$$$$
